Biological target: Adenosine receptor A2b (Homo sapiens)
Sequence (whole entry): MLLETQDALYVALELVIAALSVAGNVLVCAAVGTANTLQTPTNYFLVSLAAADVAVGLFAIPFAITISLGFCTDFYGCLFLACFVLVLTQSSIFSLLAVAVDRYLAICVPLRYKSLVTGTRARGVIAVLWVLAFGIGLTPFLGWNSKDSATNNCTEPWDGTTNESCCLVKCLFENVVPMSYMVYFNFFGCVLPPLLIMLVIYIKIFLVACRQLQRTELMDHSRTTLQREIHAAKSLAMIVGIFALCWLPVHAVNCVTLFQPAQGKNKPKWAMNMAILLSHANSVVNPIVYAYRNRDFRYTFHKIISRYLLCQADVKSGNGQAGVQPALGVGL
Assay: Displacement of [3H]DPCPX from recombinant human adenosine A2B receptor expressed in HEK293 cells at 0.01 uM
Parameter: inhibition (%)
Give the quantity in %, number only.

Entry CCCn1c(=O)c2[nH]c(-c3ccc(OCC(=O)Nc4ccc(CS(=O)(=O)N5CCCC5)cc4)cc3)cc2n(CCC)c1=O — recorded inhibition = 58

COCCCn1c(=O)c2[nH]c(-c3ccc(OCC(=O)Nc4ccc(F)cc4)cc3)cc2n(CCCOC)c1=O has a reported inhibition of 24

Entry under test: COCCCn1c(=O)c2[nH]c(-c3ccc(OCC(=O)O)cc3)cc2n(CCCOC)c1=O . Its inhibition was 10

Reported inhibition of CCCn1c(=O)c2[nH]c(-c3ccc(OCC(=O)Nc4ccccc4)cc3)c(Br)c2n(CCC)c1=O : 16

inhibition for CCCn1c(=O)c2[nH]c(-c3ccc(OC(C)(C)C(=O)Nc4ccc(Br)cc4)cc3)cc2n(CCC)c1=O is 49

// recorded inhibition for CC(Oc1ccc(-c2cc3c([nH]2)c(=O)n(C)c(=O)n3C)cc1)C(=O)Nc1ccc(F)cc1 (configuration not stated) : 76

Entry CCCn1c(=O)c2[nH]c(-c3ccc(OCC(=O)NC(C(=O)O)c4ccccc4)cc3)cc2n(CCC)c1=O (configuration not stated) ; inhibition = 38

Record CCCn1c(=O)c2[nH]c(-c3ccc(OCC(=O)Nc4ccc(C(=O)OCC)cc4)cc3)cc2n(C)c1=O , field inhibition: 12

Entry COc1cc(-c2cc3c([nH]2)c(=O)n(C)c(=O)n3C)ccc1OCC(=O)Nc1ccc(Br)cc1 ; inhibition = 15

Record CCCn1c(=O)c2[nH]c(-c3ccc(OCC(=O)Nc4cc(C)cc(C)n4)cc3)cc2n(CCC)c1=O , field inhibition: 12

// recorded inhibition for CCCn1c(=O)c2[nH]c(-c3ccc(OCC(=O)Nc4ccc(C)cc4)cc3)cc2n(CCC)c1=O : 27

According to the records, this compound CCCn1c(=O)c2[nH]c(-c3ccc(OCC(=O)NC(C(=O)OC)c4ccccc4)cc3)cc2n(CCC)c1=O (configuration not stated) displays inhibition of 29

// COCCCn1c(=O)c2[nH]c(-c3ccc(OCC(=O)Nc4ccccc4)cc3)cc2n(CCCOC)c1=O : inhibition value = 1

The recorded inhibition for entry Cn1c(=O)c2[nH]c(-c3ccc(OCC(=O)NCc4ccco4)cc3)cc2n(C)c1=O equals 10

Per the records, this compound ( CC(C)Cn1c(=O)c2[nH]c(-c3ccc(OCC(=O)Nc4ccccc4)cc3)cc2n(C)c1=O ) has inhibition equal to 15

Memo: CCCn1c(=O)c2[nH]c(-c3ccc(OCC(=O)Nc4cnccn4)cc3)cc2n(CCC)c1=O , reported inhibition: 10

GET /value?item= COCCCn1c(=O)n(C)c(=O)c2[nH]c(-c3ccc(OCC(=O)Nc4ccccc4)cc3)cc21 &field=inhibition returns 27
